# -log(Kd) values compiled below
target: T1, Recombinant human Fc-tagged extracellular domain of LILRB1 (human, UniProt Q8NHL6 24-461); assay: SPR, Biacore X100; LILRB1-Fc amine-coupled to CM5 chip, antibody injected at 3.7-300 nM
T1 construct: extracellular domain; Bought from R&D Systems; also called LILRB1-Fc; not shown: Fc tag
T1 sequence (Q8NHL6 24-461): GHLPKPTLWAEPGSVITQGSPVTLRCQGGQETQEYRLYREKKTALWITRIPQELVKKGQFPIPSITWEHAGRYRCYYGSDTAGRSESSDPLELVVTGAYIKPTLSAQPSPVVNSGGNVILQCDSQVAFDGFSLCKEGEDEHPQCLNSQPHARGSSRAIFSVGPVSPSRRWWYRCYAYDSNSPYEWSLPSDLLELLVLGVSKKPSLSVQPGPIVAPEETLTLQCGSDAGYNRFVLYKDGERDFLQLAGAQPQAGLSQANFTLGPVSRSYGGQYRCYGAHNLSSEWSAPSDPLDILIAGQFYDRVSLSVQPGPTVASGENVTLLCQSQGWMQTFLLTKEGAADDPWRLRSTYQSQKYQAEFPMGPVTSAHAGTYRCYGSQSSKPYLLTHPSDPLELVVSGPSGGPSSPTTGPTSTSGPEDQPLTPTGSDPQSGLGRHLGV
Write the value as a bare number.

4A10 (antibody, V domains shown, Entries are printed with leader peptide and part of the mouse constant region; also called LILRB1 antibody 4A10) VH: QVQLQQPGAELVKPGASVKLSCKASGYTFTNYWMYWVKQRPGQGLEWIGMIHPNSDSTNYNEKFKNKATLTVDRSSSTAYMQLSSLTSEDSAVYCCARGEDNYDYVMDYWGQGTSVTVSS VL: DIVMTQAAPSVPVTPGESVSISCRSSKSLLHSYGNTHLYWFLQRPGQSPQLLIYRMSNLASGVPDRFSGSGSGTAFTLRISRVEAEDVGVYYCMQHLEYPLTFGAGTKLELKR	7.89

Please report the recorded -log(Kd) for 3E12 (antibody, V domains shown, Entries are printed with leader peptide and part of the mouse constant region; also called LILRB1 antibody 3E12) VH: QVQLQQSGAELMKPGASVKLSCKATGYTFTGYWIEWVKQRPGHGLEWIGEILLGSGNTNYNENFKGKATLTADTSSNTAYMQLSSLTTEDSAIYYCASTHDGYWGQGTTLTVSS VL: QFILTQSPAIMSASPGEKVTITCSASSSVSYMHWFQQKPGTSPKLWIYSTSNLASGVPARFSGSGSGTSYSLTISRMEAEDAATYYCQRRSSYPFTFGSGTKLEIKR .
11.6

The origin of these recorded values is patent US20240150462A1.
